Recorded values, source patent US7879876B2.

Tested target: MMP-14 (Homo sapiens, UniProt P50281)
Test method notes: MMP-14 enzyme inhibition assay (coumarin-labelled peptide substrate)
Type: biochemical
Run parameters: @ 5 μM; read-out: percentage inhibition MMP14
inhibition at 5 µM below 50% gives Not satisfied; inhibition at 5 µM at or above it gives Satisfied.

Could you tell me if the measured inhibition at 5 µM of O=CN(O)C(CS(=O)(=O)N1CCc2ccccc2C1)C1CC1 (centres unmarked) [Example 4] reaches 50% or more?
Not satisfied

Could you tell me if the measured inhibition at 5 µM of O=CN(O)C(CS(=O)(=O)N1CCc2cc(C(F)(F)F)ccc2C1)C1CCCC1 (centres unmarked) [Example 25] reaches 50% or more?
Satisfied

Could you tell me if the measured inhibition at 5 µM of O=CN(O)C(CS(=O)(=O)N1CCc2ccc(C(F)(F)F)cc2C1)C1CC1 (centres unmarked) [Example 83] reaches 50% or more?
Not satisfied

Could you tell me if the measured inhibition at 5 µM of CC1(C)OC[C@H](C(CS(=O)(=O)N2Cc3ccccc3C2)N(O)C=O)O1 (some centres unmarked) [Example 16] reaches 50% or more?
Satisfied

Could you tell me if the measured inhibition at 5 µM of O=CN(O)C(CS(=O)(=O)N1CCc2ccccc2C1)c1ccsc1 (centres unmarked) [Example 7] reaches 50% or more?
Satisfied

Could you tell me if the measured inhibition at 5 µM of CC(C)(C)c1ccc2c(c1)CN(S(=O)(=O)CC(COCc1ccccc1)N(O)C=O)CC2 (centres unmarked) [Example 57] reaches 50% or more?
Not satisfied

Could you tell me if the measured inhibition at 5 µM of O=CN(O)C(CS(=O)(=O)N1CCc2ccc(F)cc2C1)C1CCN(Cc2ccccc2)CC1 (centres unmarked) [Example 53] reaches 50% or more?
Not satisfied

Could you tell me if the measured inhibition at 5 µM of O=CN(O)C(CS(=O)(=O)N1CCc2ccccc2C1)c1cccs1 (centres unmarked) [Example 5] reaches 50% or more?
Satisfied

Could you tell me if the measured inhibition at 5 µM of COc1cc2c(cc1OC)CN(S(=O)(=O)CC([C@H](O)CO)N(O)C=O)CC2 (some centres unmarked) [Example 24] reaches 50% or more?
Not satisfied

Could you tell me if the measured inhibition at 5 µM of COc1ccc(C(CS(=O)(=O)N2CCc3ccccc3C2)N(O)C=O)cn1 (centres unmarked) [Example 13] reaches 50% or more?
Satisfied

###

Sequence of the target: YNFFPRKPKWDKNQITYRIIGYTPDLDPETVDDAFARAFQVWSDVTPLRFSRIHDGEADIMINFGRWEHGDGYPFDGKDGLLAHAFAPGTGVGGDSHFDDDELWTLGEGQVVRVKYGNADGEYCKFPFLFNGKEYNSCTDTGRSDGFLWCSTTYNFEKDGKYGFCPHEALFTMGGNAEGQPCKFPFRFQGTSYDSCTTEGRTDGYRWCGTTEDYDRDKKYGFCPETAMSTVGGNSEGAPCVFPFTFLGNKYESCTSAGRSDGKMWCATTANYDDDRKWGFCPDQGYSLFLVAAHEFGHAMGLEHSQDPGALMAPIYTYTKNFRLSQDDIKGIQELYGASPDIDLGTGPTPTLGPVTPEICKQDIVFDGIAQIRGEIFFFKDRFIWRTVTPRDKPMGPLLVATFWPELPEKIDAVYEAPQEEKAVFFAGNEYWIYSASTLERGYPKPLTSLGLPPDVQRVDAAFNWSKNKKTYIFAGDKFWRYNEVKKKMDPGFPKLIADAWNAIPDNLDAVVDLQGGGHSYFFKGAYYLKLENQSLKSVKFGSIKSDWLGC
I'd be grateful if you could share measured pIC50 for these entries.
Please keep in mind that pIC50 is minus log10 of the molar concentration; only the number is needed.

Give its pIC50 value. Item: O=CN(O)C(COCc1ccccc1)CS(=O)(=O)N1CCc2ccc(Cl)cc2C1 (stereo not shown) [Example 58]
7.70

Give its pIC50 value. Item: O=CN(O)C(CS(=O)(=O)N1CCc2ccccc2C1)C1CC1 (stereo not shown) [Example 4]
6.19

Give its pIC50 value. Item: O=CN(O)C(CCc1cccnc1)CS(=O)(=O)N1CCc2ccc(Cl)cc2C1 (stereo not shown) [Example 86]
7.68

Give its pIC50 value. Item: CC1(C)OC[C@H](C(CS(=O)(=O)N2CCc3ccc(C(F)(F)F)cc3C2)N(O)C=O)O1 (stereo partly shown) [Example 28]
7.35

Give its pIC50 value. Item: O=CN(O)[C@H](CS(=O)(=O)N1Cc2ccc(F)cc2C1)[C@H]1CCCO1 [Example 29]
6.82

Give its pIC50 value. Item: CC(C)C(CS(=O)(=O)N1CCc2ccc(-c3ccc(F)cc3)cc2C1)N(O)C=O (stereo not shown) [Example 50]
7.05

Give its pIC50 value. Item: O=CN(O)C(CO)CS(=O)(=O)N1CCc2cc(Cl)c(Cl)cc2C1 (stereo not shown) [Example 49]
7.96

Give its pIC50 value. Item: O=CN(O)C(CS(=O)(=O)N1CCc2ccc(C(F)(F)F)cc2C1)C1CCCC1 (stereo not shown) [Example 82]
6.46

Give its pIC50 value. Item: CC(C)(C)CC(CS(=O)(=O)N1CCc2cc(C(F)(F)F)ccc2C1)N(O)C=O (stereo not shown) [Example 43]
7.68

Give its pIC50 value. Item: CC1(C)OC[C@H](C(CS(=O)(=O)N2CCc3ccccc3C2)N(O)C=O)O1 (stereo partly shown) [Example 2]
6.28

Give its pIC50 value. Item: O=CN(O)C(CS(=O)(=O)N1CCc2ccc(-c3ccccc3)cc2C1)C1CCCC1 (stereo not shown) [Example 69]
6.28

Give its pIC50 value. Item: O=CN(O)[C@@H](CS(=O)(=O)N1CCc2ccc(Cl)cc2C1)[C@H]1CCCO1 [Example 22]
6.33
